Assay summary: alpha-synuclein stem-loop luciferase translation blockers – H4 neuroglioma cells, luminescence, confirmation (AID 1988)
Format: functional, cell-based
The source made the active and inactive calls. Rule as the data show it: actives have a measured EC50 and inactives only a lower limit.
Readout: EC50

                                   molecule         value_observed
0  CC(C)CCNc1nc(N)c([N+](=O)[O-])c(NCC2CCCO2)n1 (stereo not given)  > 120 µM (not active)

q: Output EC50 of CCOC(=O)c1c(CSc2ccc(CC)cc2)oc2ccc(O)c(CN(C)C)c12
a: > 120 µM (not active)

q: Output EC50 of CCCCCCn1c2c(c(=N)c3c1CCC3)CCC2
a: 6.52 µM (active)

q: Output EC50 of Cc1onc(-c2ccccc2)c1C(=O)N1CCN(S(=O)(=O)c2ccc(Cl)cc2)CC1
a: > 120 µM (not active)

q: Output EC50 of Cc1c(CCC(=O)N[C@@H](C)C(=O)O)c(=O)oc2cc3oc4c(c3cc12)CCCC4
a: 14.4 µM (active)
